Data credit: patent US9006228B2

// pEC50 lookup, one value per entry
Target: human GPR119 (Homo sapiens)
Assay: Measurement of GPR119 signaling (cAMP assay; LANCE kit or HTRF) in HEK293 cells stably transfected with human GPR119
Conditions: agonist-stimulated cAMP in HEK293 cells expressing human GPR119
Procedure: Measurement of GPR119 Signaling Using LANCE 384-Well cAMP Kit The adenylate cyclase assay was constructed following the LANCE™ cAMP Kit (Perkin Elmer, AD0264) instructions. […] Fluorescence at 665 nm was measured using a PHERAstar instrument. Basal activity was determined using a DMSO control and maximum response was defined as cAMP stimulation produced by an internal agonist control. Standard cAMP concentrations were assayed concurrently for conversion of fluorescence signal to cAMP level. […]
Value format note: pEC50 is -log10 of concentration (mol/L); just state the number.

COCc1cnc(N2CCC([C@H]3C[C@H]3COCc3ccc(S(C)(=O)=O)cc3F)CC2)nc1 [Example 77] = 8.80
CCc1cnc(N2CCC([C@H]3C[C@H]3[C@H](COC)OCc3ccc(S(C)(=O)=O)cc3)CC2)nc1 [Example 65] = 6.07

q: Look up pEC50: CCc1cnc(N2CCC([C@H]3C[C@H]3COCc3ccc(-c4cnc(OC)nc4)cc3F)CC2)nc1 [Example 104]
a: 8.06

q: Item: CS(=O)(=O)c1ccc(COC[C@@H]2C[C@@H]2C2CCN(c3ncc(-c4cn[nH]c4)cn3)CC2)nc1 [Example 7]
a: 7.81

q: Item: CC(C)c1noc(N2CCC([C@H]3C[C@H]3COCc3ccc(CC(=O)N(C)C)c(F)c3)CC2)n1 [Example 140]
a: 9.18

q: Item: CS(=O)(=O)c1ccc(COC[C@@H]2C[C@@H]2C2CCN(c3ncc(Cl)cn3)CC2)nc1 [Example 1]
a: 8.06

q: Item: CC(C)(O)c1cnc(N2CCC([C@H]3C[C@H]3COCc3ccc(S(C)(=O)=O)cc3F)CC2)nc1 [Example 76]
a: 7.82

----------
Target: UniProt Q8TDV5
Assay: Measurement of GPR119 signaling (cAMP assay; LANCE kit or HTRF) in HEK293 cells stably transfected with human GPR119
Format: cell-based
Details: agonist-stimulated cAMP in HEK293 cells expressing human GPR119
quantity_measured: pEC50
Value format note: pEC50 is -log10 of concentration (mol/L); just state the number.

Example entries and their recorded answers appear below.
CS(=O)(=O)c1ccc(COC[C@@H]2C[C@@H]2C2CCN(C(=O)OCC3CC3)CC2)cc1 = 8.49
CCc1cnc(N2CCC([C@H]3C[C@H]3COCc3ccc(-c4cncnc4)c(F)c3)CC2)nc1 = 8.70
CC(O)CS(=O)(=O)c1ccc(COC[C@@H]2C[C@@H]2C2CCN(c3ncc(Cl)cn3)CC2)c(F)c1 (stereo partly shown) = 8.62
CCc1cnc(N2CCC([C@H]3C[C@H]3[C@@H](COC)OCc3ccc(S(=O)(=O)CC)cc3)CC2)nc1 = 9.80
CCS(=O)(=O)c1ccc(COC[C@@H]2C[C@@H]2C2CCN(c3nc(C4CC4)no3)CC2)cc1 = 8.64

q: Look up pEC50: O=C(c1c(F)cc(COC[C@@H]2C[C@@H]2C2CCN(c3ncc(Cl)cn3)CC2)cc1F)C1CC1
a: 9.00

q: Item: Cc1cnc(N2CCC([C@H]3C[C@H]3COCc3ccc(S(C)(=O)=O)cc3)CC2)nc1
a: 8.80

q: Item: CCS(=O)(=O)c1ccc(COC[C@@H]2C[C@@H]2C2CCN(c3nc(C(C)C)no3)CC2)cc1
a: 8.51

q: Item: CCS(=O)(=O)c1ccc(COC[C@@H]2C[C@@H]2C2CCN(C(=O)OC(C)(C)C)CC2)cc1F
a: 10.00

----------
Target: human GPR119 (Homo sapiens, UniProt Q8TDV5)
Sequence (Q8TDV5 1-308 limits assumed): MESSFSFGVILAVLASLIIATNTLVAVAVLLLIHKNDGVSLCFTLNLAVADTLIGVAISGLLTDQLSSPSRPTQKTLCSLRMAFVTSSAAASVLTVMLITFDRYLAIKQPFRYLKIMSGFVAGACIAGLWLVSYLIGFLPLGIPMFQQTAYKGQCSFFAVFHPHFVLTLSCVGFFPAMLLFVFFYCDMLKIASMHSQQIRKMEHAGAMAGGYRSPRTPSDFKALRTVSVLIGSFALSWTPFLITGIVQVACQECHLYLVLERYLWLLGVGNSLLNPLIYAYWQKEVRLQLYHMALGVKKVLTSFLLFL
Assay: Measurement of GPR119 signaling (cAMP assay; LANCE kit or HTRF) in HEK293 cells stably transfected with human GPR119
Settings: agonist-stimulated cAMP in HEK293 cells expressing human GPR119
pEC50: −log10 of the molar value.
Returns the class for an entry based on its pEC50. Class ranges: low interval = under 8, middle interval = from 8 up to 9, high interval = 9 and over

Here are 4 compounds together with their reported answers.
CCc1cnc(N2CCC([C@H]3C[C@H]3COCc3cc(F)c(S(C)(=O)=O)c(F)c3)CC2)nc1 [Example 46] = high interval
CC(C)OC(=O)N1CCC([C@H]2C[C@H]2COCc2cc(F)c(S(C)(=O)=O)c(F)c2)CC1 [Example 50] = low interval
CS(=O)(=O)c1ccc(COC[C@@H]2C[C@@H]2C2CCN(c3ncc(Cl)cn3)CC2)c(F)c1 [Example 68] = high interval
COCc1cnc(N2CCC([C@H]3C[C@H]3COCc3ccc(CC(=O)N4CCC4)cc3F)CC2)nc1 [Example 145] = middle interval

q: Which class holds COc1cnc(N2CCC([C@H]3C[C@H]3COCc3ccc(S(C)(=O)=O)cc3)CC2)nc1 [Example 15] ?
a: high interval

----------
// EC50 lookup, one value per entry
Biological target: human GPR119 (Homo sapiens, UniProt Q8TDV5)
Test: Measurement of GPR119 signaling (cAMP assay; LANCE kit or HTRF) in HEK293 cells stably transfected with human GPR119
Conditions: agonist-stimulated cAMP in HEK293 cells expressing human GPR119
// note: answer is a bare numeric in nM

Example entries and their recorded answers appear below.
CCc1cnc(N2CCC([C@H]3C[C@H]3COCc3ccc(-c4cncnc4)cc3F)CC2)nc1 [Example 108] = 1.1
CC(C)c1noc(N2CCC([C@H]3C[C@H]3COCc3ccc(S(C)(=O)=O)cc3F)CC2)n1 [Example 78] = 4.9

Now, please, on to the next compound.
q: Look up EC50: CC(C)(O)CSc1ccc(COC[C@@H]2C[C@@H]2C2CCN(C(=O)OC(C)(C)C)CC2)cc1 [Example 92]
a: 20.3

----------
// pEC50 lookup, one value per entry
Biological target: human GPR119 (Homo sapiens, UniProt Q8TDV5)
Experiment: Measurement of GPR119 signaling (cAMP assay; LANCE kit or HTRF) in HEK293 cells stably transfected with human GPR119
Conditions: agonist-stimulated cAMP in HEK293 cells expressing human GPR119
Value format note: pEC50 is -log10 of concentration (mol/L); just state the number.

CC(C)c1noc(N2CCC([C@H]3C[C@H]3COCc3ccc(S(C)(=O)=O)cc3)CC2)n1 [Example 24] = 9.04
CCc1cnc(N2CCC([C@H]3C[C@H]3COCc3ccc(CCO)cc3)CC2)nc1 [Example 60] = 8.60
O=S(=O)(CCO)c1ccc(COC[C@@H]2C[C@@H]2C2CCN(c3ncc(C4CC4)cn3)CC2)nc1 [Example 90] = 7.64
CS(=O)(=O)c1ccc(COC[C@@H]2C[C@@H]2C2CCN(c3ncc(C4CC4)cn3)CC2)cc1 [Example 18] = 9.00
CC1(OC(=O)N2CCC([C@H]3C[C@H]3COCc3ccc(S(C)(=O)=O)cc3)CC2)CC1 [Example 11] = 8.41
CC(C)(C)OC(=O)N1CCC([C@H]2C[C@H]2COCc2ccc(S(C)(=O)=O)c(F)c2)CC1 [Example 33] = 8.96
COCc1cnc(N2CCC([C@H]3C[C@H]3COCc3ccc(CC(=O)N(C)C)cc3F)CC2)nc1 [Example 147] = 8.60
CCc1cnc(N2CCC([C@H]3C[C@H]3COCc3ccc(-c4ccnnc4)cc3F)CC2)nc1 [Example 102] = 9.22

q: Look up pEC50: CCc1cnc(N2CCC([C@H]3C[C@H]3COCc3ccc(-c4cnc(N)nc4)c(F)c3)CC2)nc1 [Example 118]
a: 8.23

q: Item: CCc1cnc(N2CCC([C@H]3C[C@H]3[C@@H](COC)OCc3ccc(S(C)(=O)=O)cc3)CC2)nc1 [Example 66]
a: 9.72

q: Item: CC(C)c1noc(N2CCC([C@H]3C[C@H]3COCc3ccc(CC(=O)N4CCOCC4)c(F)c3)CC2)n1 [Example 141]
a: 8.92

q: Item: Cc1cnc(N2CCC([C@H]3C[C@H]3COCc3ccc(S(=O)(=O)CCO)cc3F)CC2)nc1 [Example 82]
a: 7.93

q: Item: CCc1cnc(N2CCC([C@H]3C[C@H]3COCc3ccc(-c4ccnc(N)n4)cc3F)CC2)nc1 [Example 105]
a: 7.97

q: Item: CCc1cnc(N2CCC([C@H]3C[C@H]3COCc3ccc(-c4ccncn4)cc3F)CC2)nc1 [Example 110]
a: 8.82

q: Item: CCc1cnc(N2CCC([C@H]3C[C@H]3COCc3ccc(-c4cnccn4)cc3F)CC2)nc1 [Example 109]
a: 8.64

q: Item: CCOc1cnc(N2CCC([C@H]3C[C@H]3COCc3ccc(S(C)(=O)=O)c(F)c3)CC2)nc1 [Example 129]
a: 8.78
